# study.system: human thrombin (Homo sapiens, UniProt P00734)
# Construct: purchased Sigma T-6759
# test.method.notes: Inhibitory activity for thrombin (chromogenic substrate hydrolysis, 405 nm)
# Assay type: biochemical
# condition.summary: IC50 for trypsin divided by IC50 for thrombin
parameter.measured: Selectivity (trypsin/thrombin)
Answers are plain numbers.

Quick request: Selectivity (trypsin/thrombin) for each listed item, please.
1. CCn1c(CC[C@@H]2CCCN2C(=O)[C@H]2CCCN2CC(=O)O)cc2ccc(C(=N)N)cc21
2. CCOC(=O)[C@@H](N)CC(=O)N1CCC[C@@H]1C(=O)N1CCC[C@H]1CCc1cc2ccc(C(=N)N)cc2n1CC
3. C=CC(=O)N1CCC[C@@H]1C(=O)N1CCC[C@H]1CCc1cc2ccc(C(=N)N)cc2n1CC
4. CCn1c(CC[C@@H]2CCCN2C(=O)[C@H]2CCCN2CC(N)=O)cc2ccc(C(=N)N)cc21

Response:
8.1
20.7
30.0
28.8

====

# test.method.notes: Pharmacokinetic test in rats (intravenous injection and oral administration)
# Format: in vivo, S.D. male rats
# condition.summary: rat, blood, iv, 10 mg/kg, i.v. 10 mg/kg, 6.000 h; read-out: Blood concentration, individual rats (Rat-1 to Rat-5)
parameter.measured: concentration at 6 h (ng/mL)
One number for each entry, in ng/mL.

Request: Tell me the measured concentration at 6 h of CCn1c(CC[C@@H]2CCCN2C(=O)[C@H]2CCCN2CC(=O)O)cc2ccc(C(=N)N)cc21 , please.
Response: 90

====

# study.system: human thrombin (Homo sapiens, UniProt P00734)
# Construct: purchased Sigma T-6759
# test.method.notes: Inhibitory activity for thrombin (chromogenic substrate hydrolysis, 405 nm)
# Format: biochemical
# condition.summary: IC50 for trypsin divided by IC50 for thrombin
Binary call on Selectivity (trypsin/thrombin): Met from 30 upward, Not met beneath that.

Take a look at these entries with their results.
Request: Say whether CCn1c(CC[C@@H]2CCCN2C(=O)[C@H]2CCCN2C(=O)CC(C)O)cc2ccc(C(=N)N)cc21 (stereo partly drawn) shows Selectivity (trypsin/thrombin) of 30 or more.
Response: Met

Request: Say whether CCOC(=O)CN(CC(=O)N1CCC[C@H]1CCc1cc2ccc(C(=N)N)cc2n1CC)C1CC1 shows Selectivity (trypsin/thrombin) of 30 or more.
Response: Met

Request: Say whether CCn1c(CC[C@@H]2CCCN2C(=O)[C@H]2CCCN2C(=O)[C@H](C)N)cc2ccc(C(=N)N)cc21 shows Selectivity (trypsin/thrombin) of 30 or more.
Response: Met

Request: Say whether CCn1c(CC[C@@H]2CCCN2C(=O)[C@H]2CCCN2CCCCC(=O)O)cc2ccc(C(=N)N)cc21 shows Selectivity (trypsin/thrombin) of 30 or more.
Response: Not met

Request: Say whether CCn1c(CC[C@@H]2CCCN2C(=O)[C@H]2CCCN2C(=O)CCN)cc2ccc(C(=N)N)cc21 shows Selectivity (trypsin/thrombin) of 30 or more.
Response: Not met

Next:
Request: Say whether CCn1c(CC[C@@H]2CCCN2C(=O)[C@H]2CCCN2C(CCO)C(N)=O)cc2ccc(C(=N)N)cc21 (stereo partly drawn) shows Selectivity (trypsin/thrombin) of 30 or more.
Response: Met

====

# test.method.notes: Pharmacokinetic test in rats (intravenous injection and oral administration)
# Type: in vivo, S.D. male rats
# condition.summary: rat, blood, po, 100 mg/kg, rats, oral 100 mg/kg, 0.250 h
parameter.measured: concentration at 0.25 h (ng/mL)
Give bare numbers, in ng/mL.

Request: Tell me the measured concentration at 0.25 h of CCn1c(CC[C@@H]2CCCN2C(=O)[C@H]2CCCN2CC(=O)O)cc2ccc(C(=N)N)cc21 , please.
Response: 4150
